Hello, the source for this data is ChEMBL document CHEMBL1139759, in case you need it.

Molecular target: Sodium- and chloride-dependent glycine transporter 1 (Homo sapiens, UniProt P48067)
Sequence (P48067 whole entry): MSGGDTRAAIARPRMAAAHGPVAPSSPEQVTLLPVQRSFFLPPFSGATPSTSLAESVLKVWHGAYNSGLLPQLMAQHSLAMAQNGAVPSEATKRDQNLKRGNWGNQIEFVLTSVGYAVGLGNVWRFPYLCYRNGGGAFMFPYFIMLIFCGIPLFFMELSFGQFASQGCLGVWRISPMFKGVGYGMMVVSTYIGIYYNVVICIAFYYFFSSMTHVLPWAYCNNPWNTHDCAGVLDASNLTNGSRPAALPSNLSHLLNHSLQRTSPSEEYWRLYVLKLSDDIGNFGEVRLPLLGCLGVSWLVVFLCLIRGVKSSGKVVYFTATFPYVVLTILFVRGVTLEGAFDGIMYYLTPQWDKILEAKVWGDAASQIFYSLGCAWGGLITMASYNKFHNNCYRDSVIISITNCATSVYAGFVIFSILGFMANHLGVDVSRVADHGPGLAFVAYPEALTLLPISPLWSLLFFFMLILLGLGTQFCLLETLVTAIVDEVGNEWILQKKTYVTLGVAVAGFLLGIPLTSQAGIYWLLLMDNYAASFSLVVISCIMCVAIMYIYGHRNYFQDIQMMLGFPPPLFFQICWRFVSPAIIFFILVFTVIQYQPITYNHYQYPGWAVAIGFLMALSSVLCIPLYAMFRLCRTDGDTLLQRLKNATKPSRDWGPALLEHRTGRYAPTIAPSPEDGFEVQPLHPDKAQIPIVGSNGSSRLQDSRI
Experiment: Inhibition of [14C]glycine reuptake at human GlyT1 expressed in BE(2)-C cells
Assay type: cell-based
property: IC50 (µM)

input_smiles	property	measured_result
CN(CCOc1ccc(-c2ccc(Cl)cc2)cc1C(=O)c1cccs1)CC(=O)O	IC50	0.068

[I] CN(CCOc1ccc(-c2ccccc2)cc1-c1cccs1)CC(=O)O
[II] COc1ccccc1-c1cc(-c2ccccc2)ccc1OCCN(C)CC(=O)O
[III] CN(CCOc1ccc(-c2ccccc2Cl)cc1C(=O)c1cccs1)CC(=O)O
[IV] COc1ccc(-c2ccc(OCCN(C)CC(=O)O)c(C(=O)c3cccs3)c2)cc1C
[V] CN(CCOc1ccc(-c2ccccc2)cc1-c1ccc(Cl)cc1)CC(=O)O
Problem: hey, can you rank those molecules up there by IC50? biggest number first please Put the labels in the requested order and list them out.
Result: V, II, III, I, IV
(V: 0.965 µM, II: 0.351 µM, III: 0.175 µM, I: 0.07 µM, IV: 0.018 µM)

[a] COc1ccc(-c2ccc(OCCN(C)CC(=O)O)c(-c3cccs3)c2)cc1C
[b] Cc1ccccc1-c1ccc(OCCN(C)CC(=O)O)c(C(=O)c2cccs2)c1
Problem: Hi there, can you help? I need to know whether a or b has lower measured IC50. Lab log: write the label of the selected item as the result.
Result: a
